# Tested on: Candida albicans
# EXPERIMENTAL_DETAILS: Antifungal activity against CDR1 and CDR2 efflux pump deficient Candida albicans DSY654 after 48 hrs by broth microdilution method
# Assay type: functional
# RUN_PARAMETERS: DSY654, 48 h
Measured MIC80 by item

In the examples that follow, each entry is paired with its recorded MIC80.
input: For the molecule `COc1cc(O)c(-c2cc(-c3ccccc3)nn2-c2ccccc2)c(OC)c1OC` , report MIC80.
output: > 128 mg/L

input: For the molecule `COc1ccc(-c2cn(-c3ccccc3)nc2-c2c(O)cc(OC)cc2OC)cc1` , report MIC80.
output: > 128 mg/L

input: For the molecule CCn1ncc(-c2ccc(O)cc2)c1-c1ccc(O)c(C2OC(CO)C(O)C(O)C2O)c1O (configuration not stated) , report MIC80.
output: > 128 mg/L

***
input: For the molecule `Oc1ccccc1-c1cc(-c2ccccc2)[nH]n1` , report MIC80.
output: 8 mg/L

input: For the molecule `COc1cc(O)c(-c2cc(-c3ccccc3)n[nH]2)c(OC)c1` , report MIC80.
output: 1 mg/L

input: For the molecule `COc1cc(O)c(-c2cc(-c3ccccc3)[nH]n2)c(OC)c1OC` , report MIC80.
output: 2 mg/L
